melting point for assorted molecules
Where a name gives a salt, the structure may show the parent alone.

In [3]: df
Out[3]:
                                   molecule  measured_result
0  FC(F)(F)c1cccc(CNc2ccnc(NCc3cccc(C(F)(F)F)c3)n2)c1 (as salt: HCl)           172 °C

[in] Param item = Clc1ccc(CNc2ccnc(NCc3ccc(Cl)c(Cl)c3)n2)cc1Cl (as salt: HCl) ; retrieve measured melting point.
[out] 167 to 170 °C

[in] Param item = CC(Nc1ccnc(NC(C)c2ccc(F)cc2)n1)c1ccc(F)cc1 (stereo not drawn) (as salt: HCl) ; retrieve measured melting point.
[out] 151 to 154 °C

[in] Param item = Clc1ccc(CCNc2ccnc(NCCc3ccc(Cl)cc3)n2)cc1 (as salt: HCl) ; retrieve measured melting point.
[out] 201 to 204 °C

[in] Param item = Clc1ccc(CNc2ccnc(NCc3ccc(Cl)cc3)n2)cc1 (as salt: HCl) ; retrieve measured melting point.
[out] 213 to 216 °C

[in] Param item = Fc1ccc(CCNc2ccnc(NCCc3ccc(F)cc3)n2)cc1 (as salt: HCl) ; retrieve measured melting point.
[out] 177.4 to 179.4 °C
